target: mGAT4 (Mus musculus); construct: expressed in transfected cells; assay: [3H]GABA uptake at mouse GABA transporters, HEK-293 cells; type: cell-based
Sequence (P31650 whole entry): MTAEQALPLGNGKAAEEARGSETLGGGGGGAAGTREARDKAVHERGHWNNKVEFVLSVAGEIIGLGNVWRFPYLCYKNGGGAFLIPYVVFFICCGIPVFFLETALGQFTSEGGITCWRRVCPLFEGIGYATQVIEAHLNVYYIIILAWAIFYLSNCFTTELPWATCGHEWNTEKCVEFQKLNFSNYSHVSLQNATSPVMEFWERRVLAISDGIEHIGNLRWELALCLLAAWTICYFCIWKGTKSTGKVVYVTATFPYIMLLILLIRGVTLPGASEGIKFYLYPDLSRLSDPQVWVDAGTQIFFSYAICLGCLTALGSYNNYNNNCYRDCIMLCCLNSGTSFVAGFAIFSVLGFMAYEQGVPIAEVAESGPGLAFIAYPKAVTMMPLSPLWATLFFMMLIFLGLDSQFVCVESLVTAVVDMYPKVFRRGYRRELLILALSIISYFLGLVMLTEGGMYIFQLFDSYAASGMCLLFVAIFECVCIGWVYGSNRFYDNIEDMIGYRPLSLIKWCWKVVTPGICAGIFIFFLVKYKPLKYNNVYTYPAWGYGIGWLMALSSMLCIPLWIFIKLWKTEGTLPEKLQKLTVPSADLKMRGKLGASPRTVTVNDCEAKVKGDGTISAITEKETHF
MEASURED PARAMETER: IC50

1. N[C@H]1C[C@@H](C(=O)O)CC1=C(F)F ... > 1000 µM

###

molecular target: hGAT-3 (Homo sapiens, UniProt P48066); construct: expressed in transfected cells; host or cells: tsA201 cells, transient (PolyFect); experiment: [3H]GABA uptake at human GABA transporters, tsA201 cells; assay type: cell-based
Sequence (P48066 whole entry): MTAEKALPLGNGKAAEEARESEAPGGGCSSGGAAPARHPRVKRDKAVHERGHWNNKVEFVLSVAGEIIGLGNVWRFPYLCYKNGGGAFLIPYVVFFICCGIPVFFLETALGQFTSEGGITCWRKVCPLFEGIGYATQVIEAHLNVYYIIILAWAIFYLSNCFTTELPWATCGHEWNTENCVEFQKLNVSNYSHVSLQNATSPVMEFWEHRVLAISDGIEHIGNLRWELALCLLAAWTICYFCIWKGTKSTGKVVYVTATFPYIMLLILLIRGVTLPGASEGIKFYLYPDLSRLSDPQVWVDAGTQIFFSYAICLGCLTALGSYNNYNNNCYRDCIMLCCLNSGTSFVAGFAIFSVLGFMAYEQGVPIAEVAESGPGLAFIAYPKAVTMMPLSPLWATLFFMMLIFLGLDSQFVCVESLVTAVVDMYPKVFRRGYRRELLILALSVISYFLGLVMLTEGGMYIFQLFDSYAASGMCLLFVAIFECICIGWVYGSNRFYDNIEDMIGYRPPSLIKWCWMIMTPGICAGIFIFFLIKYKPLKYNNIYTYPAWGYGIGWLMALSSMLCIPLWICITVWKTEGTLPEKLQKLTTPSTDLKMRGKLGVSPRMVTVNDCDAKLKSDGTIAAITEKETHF
pIC50: −log10 of the molar value.
MEASURED PARAMETER: pIC50

1. N[C@H]1C[C@@H](C(=O)O)CC1=C(F)F [CPP-115] ... < 3.00
